src = patent US9682955B2

Molecular target: Human CB2R (Cannabanoid receptor 2) (Homo sapiens (Human))
Assay: CB-2 in vitro cAMP assay (HTRF)
Details: mean where tested more than once
MEASUREMENT LABEL: EC50 (µM)

compound=COC(=O)Cc1ccc(N2CCC(Nc3ncnc4ccc(C(c5ccc(Cl)cc5)c5ccc(Cl)cc5)cc34)CC2)cc1 measurement_units=µM qualifier_sign== experimental_value=0.173
compound=FC(F)(F)c1ccc(Nc2ncnc3ccc(C(c4ccc(Cl)cc4)c4ccc(Cl)cc4)cc23)cc1 measurement_units=µM qualifier_sign=> experimental_value=10
compound="N#CC1(c2ccccc2)CCC(Nc2ncnc3ccc(C(c4ccc(Cl)cc4)c4ccc(Cl)cc4)cc23)CC1 (stereo not shown)" measurement_units=µM qualifier_sign== experimental_value=0.196
compound=FC(F)(F)c1cncc(CNc2ncnc3ccc(C(c4ccc(Cl)cc4)c4ccc(Cl)cc4)cc23)c1 measurement_units=µM qualifier_sign== experimental_value=1.18
compound=O=S(=O)(c1ccc(O)cc1)N1CCC(Nc2ncnc3ccc(C(c4ccc(Cl)cc4)c4ccc(Cl)cc4)cc23)CC1 measurement_units=µM qualifier_sign== experimental_value=0.248
compound=O=S1(=O)CCN(CCNc2ncnc3ccc(C(c4ccc(Cl)cc4)c4ccc(Cl)cc4)cc23)CC1 measurement_units=µM qualifier_sign== experimental_value=0.455
compound=O=C(COc1nc(NCc2cccc(C(F)(F)F)c2)c2cc(C(c3ccc(Cl)cc3)c3ccc(Cl)cc3)ccc2n1)NCCO measurement_units=µM qualifier_sign== experimental_value=1.67

---

Test: Mouse Fast PK/BBB (plasma and brain concentration)
Format: in vivo, Male C57bl/6j mice
Conditions: male, C57bl/6j, brain, PO 20 mg/kg, 1 hr, N=3, read-out: BRAIN Mean Conc. ± Std. Dev
MEASUREMENT LABEL: concentration at 1 h

structure_smiles_string=FC(F)(F)c1ccc(CNc2ncnc3ccc(C(c4ccc(Cl)cc4)c4ccc(Cl)cc4)cc23)cc1 experimental_value="61.7 ng/mL"

---

Each entry below carries its recorded EC50.
Target: Human CB2R (Cannabanoid receptor 2) (Homo sapiens (Human))
Test: CB-2 in vitro cAMP assay (HTRF)
Settings: mean where tested more than once
MEASUREMENT LABEL: EC50

compound=Clc1ccc(C(c2ccc(Cl)cc2)c2ccc3ncnc(NC4CCN(c5ccccc5)CC4)c3c2)cc1 experimental_value="280 nM"
compound="O=S(=O)(c1ccc(Nc2ncnc3ccc(C(c4ccc(Cl)cc4)c4nccs4)cc23)cc1)C(F)(F)F (stereo not shown)" experimental_value="> 10000 nM"
compound=O=C(O)c1ccc(CNc2ncnc3ccc(C(c4ccc(Cl)cc4)c4ccc(Cl)cc4)cc23)cc1 experimental_value="> 10000 nM"
compound=O=C(O)CCOCCOc1nc(NCc2cccc(C(F)(F)F)c2)c2cc(C(c3ccc(Cl)cc3)c3ccc(Cl)cc3)ccc2n1 experimental_value="806 nM"

---

Each entry below carries its recorded EC50.
Molecular target: Human CB1R (Cannabanoid receptor 1) (Homo sapiens (Human), UniProt P21554)
Sequence (P21554 whole entry): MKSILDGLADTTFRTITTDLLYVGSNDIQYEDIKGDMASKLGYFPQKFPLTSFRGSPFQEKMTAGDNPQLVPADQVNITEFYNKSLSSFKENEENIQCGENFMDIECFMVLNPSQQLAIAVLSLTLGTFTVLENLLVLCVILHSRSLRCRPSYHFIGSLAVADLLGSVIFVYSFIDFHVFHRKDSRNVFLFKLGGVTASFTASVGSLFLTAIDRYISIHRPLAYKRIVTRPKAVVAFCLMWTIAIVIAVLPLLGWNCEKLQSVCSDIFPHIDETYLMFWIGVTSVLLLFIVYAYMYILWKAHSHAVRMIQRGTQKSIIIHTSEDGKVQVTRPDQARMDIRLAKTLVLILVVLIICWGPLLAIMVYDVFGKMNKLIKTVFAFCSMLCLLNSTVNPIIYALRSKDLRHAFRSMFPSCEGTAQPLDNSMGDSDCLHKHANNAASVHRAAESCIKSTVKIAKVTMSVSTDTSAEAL
Experiment: CB-1 in vitro cAMP assay (HTRF)
Conditions: mean where tested more than once
MEASUREMENT LABEL: EC50 (nM)

molecule=CC(=O)Nc1nc(NC2CCN(S(=O)(=O)C(F)(F)F)CC2)c2cc(C(c3ccc(Cl)cc3)c3ccc(Cl)cc3)ccc2n1 measurement_label=EC50 experimental_value=70
molecule=COC(=O)c1cccc(N2CCC(Nc3ncnc4ccc(C(c5ccc(Cl)cc5)c5ccc(Cl)cc5)cc34)CC2)c1 measurement_label=EC50 experimental_value=83
molecule=O=S(=O)(c1ccc(F)cc1)N1CCC(Nc2ncnc3ccc(C(c4ccc(Cl)cc4)c4ccc(Cl)cc4)cc23)CC1 measurement_label=EC50 experimental_value=3
molecule=O=C(O)c1ccc(CNc2ncnc3ccc(C(c4ccc(Cl)cc4)c4ccc(Cl)cc4)cc23)cc1 measurement_label=EC50 experimental_value=5300
molecule=O=C(O)c1ccc(S(=O)(=O)N2CCC(Nc3ncnc4ccc(C(c5ccc(Cl)cc5)c5ccc(Cl)cc5)cc34)CC2)s1 measurement_label=EC50 experimental_value=9
molecule=O=C(NC(CO)(CO)CO)c1ccc(S(=O)(=O)N2CCC(Nc3ncnc4ccc(C(c5ccc(Cl)cc5)c5ccc(Cl)cc5)cc34)CC2)cc1 measurement_label=EC50 experimental_value=8
molecule=NC(=O)c1cccc(CNc2ncnc3ccc(C(c4ccc(Cl)cc4)c4ccc(Cl)cc4)cc23)c1 measurement_label=EC50 experimental_value=215
molecule=O=C(O)c1ccc(CCN2CCC(Nc3ncnc4ccc(C(c5ccc(Cl)cc5)c5ccc(Cl)cc5)cc34)CC2)cc1 measurement_label=EC50 experimental_value=894
molecule=COc1cc(S(=O)(=O)N2CCC(Nc3ncnc4ccc(C(c5ccc(Cl)cc5)c5ccc(Cl)cc5)cc34)CC2)ccc1C(=O)O measurement_label=EC50 experimental_value=23
molecule="CC(Nc1ncnc2ccc(C(c3ccc(Cl)cc3)c3ccc(Cl)cc3)cc12)c1cccc(C(F)(F)F)c1 (stereo not drawn)" measurement_label=EC50 experimental_value=9
molecule=COc1nc(NC2CCN(S(=O)(=O)C(F)(F)F)CC2)c2cc(C(c3ccc(Cl)cc3)c3ccc(Cl)cc3)ccc2n1 measurement_label=EC50 experimental_value=4
molecule=FC(F)(F)c1ccc(CNc2ncnc3ccc(C(c4ccc(Cl)cc4)c4ccc(Cl)cc4)cc23)nc1 measurement_label=EC50 experimental_value=30
molecule=NC(=O)CCC(=O)N1CCC(Nc2ncnc3ccc(C(c4ccc(Cl)cc4)c4ccc(Cl)cc4)cc23)CC1 measurement_label=EC50 experimental_value=2460
molecule=O=C(NCCO)c1ccc(N2CCC(Nc3ncnc4ccc(C(c5ccc(Cl)cc5)c5ccc(Cl)cc5)cc34)CC2)cc1 measurement_label=EC50 experimental_value=26
molecule=COC(=O)c1cccc(CNc2ncnc3ccc(C(c4ccc(Cl)cc4)c4ccc(Cl)cc4)cc23)c1 measurement_label=EC50 experimental_value=14

---

Molecular target: Human CB1R (Cannabanoid receptor 1) (Homo sapiens (Human))
Assay: CB-1 in vitro cAMP assay (HTRF)
Details: mean where tested more than once
pEC50: −log10 of the molar value.
MEASUREMENT LABEL: pEC50

structure_smiles_string=O=S(=O)(c1ccccn1)N1CCC(Nc2ncnc3ccc(C(c4ccc(Cl)cc4)c4ccc(Cl)cc4)cc23)CC1 experimental_value=7.82
structure_smiles_string=CC(C)OC(=O)OCOC(=O)c1ccc(S(=O)(=O)N2CCC(Nc3ncnc4ccc(C(c5ccc(Cl)cc5)c5ccc(Cl)cc5)cc34)CC2)cc1 experimental_value=7.82
structure_smiles_string=NCCCCOc1nc(NCc2cccc(C(F)(F)F)c2)c2cc(C(c3ccc(Cl)cc3)c3ccc(Cl)cc3)ccc2n1 experimental_value=7.11

---

Biological target: Human CB2R (Cannabanoid receptor 2) (Homo sapiens (Human), UniProt P34972)
Sequence (P34972 whole entry): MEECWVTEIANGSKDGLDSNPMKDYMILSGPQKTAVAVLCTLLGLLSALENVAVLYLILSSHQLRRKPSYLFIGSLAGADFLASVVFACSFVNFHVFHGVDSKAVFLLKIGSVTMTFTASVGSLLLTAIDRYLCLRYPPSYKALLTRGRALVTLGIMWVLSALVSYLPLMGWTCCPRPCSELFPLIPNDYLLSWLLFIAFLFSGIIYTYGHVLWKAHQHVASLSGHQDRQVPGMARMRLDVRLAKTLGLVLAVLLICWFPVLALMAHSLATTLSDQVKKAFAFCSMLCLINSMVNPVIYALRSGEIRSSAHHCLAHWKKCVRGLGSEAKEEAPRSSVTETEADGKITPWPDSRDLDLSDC
Assay: CB-2 in vitro cAMP assay (HTRF)
Details: mean where tested more than once
pEC50: −log10 of the molar value.
MEASUREMENT LABEL: pEC50

compound=N#Cc1ccc(S(=O)(=O)N2CCC(Nc3ncnc4ccc(C(c5ccc(Cl)cc5)c5ccc(Cl)cc5)cc34)CC2)cc1 measurement_label=pEC50 qualifier_sign=< experimental_value=5.00
compound=NC(=O)CCC(=O)N1CCC(Nc2ncnc3ccc(C(c4ccc(Cl)cc4)c4ccc(Cl)cc4)cc23)CC1 measurement_label=pEC50 qualifier_sign== experimental_value=5.05
compound=OCCCCOc1nc(NCc2ccc(C(F)(F)F)cc2)c2cc(C(c3ccc(Cl)cc3)c3ccc(Cl)cc3)ccc2n1 measurement_label=pEC50 qualifier_sign=< experimental_value=5.00
compound=O=C(O)c1ccc(CN2CCC(Nc3ncnc4ccc(C(c5ccc(Cl)cc5)c5ccc(Cl)cc5)cc34)CC2)cc1 measurement_label=pEC50 qualifier_sign=< experimental_value=5.00
compound=O=S(=O)(N1CCC(Nc2nc(O)nc3ccc(C(c4ccc(Cl)cc4)c4ccc(Cl)cc4)cc23)CC1)C(F)(F)F measurement_label=pEC50 qualifier_sign== experimental_value=5.25
compound=O=C(O)c1cccc(CCN2CCC(Nc3ncnc4ccc(C(c5ccc(Cl)cc5)c5ccc(Cl)cc5)cc34)CC2)c1 measurement_label=pEC50 qualifier_sign== experimental_value=5.52
compound=O=S(=O)(c1ccc(F)cc1)N1CCC(Nc2ncnc3ccc(C(c4ccc(Cl)cc4)c4ccc(Cl)cc4)cc23)CC1 measurement_label=pEC50 qualifier_sign== experimental_value=5.67
compound=O=C(c1ccc(S(=O)(=O)NCCO)cc1)N1CCC(Nc2ncnc3ccc(C(c4ccc(Cl)cc4)c4ccc(Cl)cc4)cc23)CC1 measurement_label=pEC50 qualifier_sign== experimental_value=5.92
compound=COCCOc1nc(NCc2ccc(C(F)(F)F)cc2)c2cc(C(c3ccc(Cl)cc3)c3ccc(Cl)cc3)ccc2n1 measurement_label=pEC50 qualifier_sign=< experimental_value=5.00
compound="O=C(O)c1cccc(CN2CCC(Nc3ncnc4ccc(C(c5ccc(Cl)cc5)c5ccc(Cl)cc5)cc34)C2)c1 (centres unmarked)" measurement_label=pEC50 qualifier_sign== experimental_value=5.12
compound=NC(=O)Cc1ccc(N2CCC(Nc3ncnc4ccc(C(c5ccc(Cl)cc5)c5ccc(Cl)cc5)cc34)CC2)cc1 measurement_label=pEC50 qualifier_sign== experimental_value=6.75
compound=O=S(=O)(N1CCC(Nc2nc(C3CC3)nc3ccc(C(c4ccc(Cl)cc4)c4ccc(Cl)cc4)cc23)CC1)C(F)(F)F measurement_label=pEC50 qualifier_sign=< experimental_value=5.00
compound=O=C(O)c1ccc(C(=O)N2CCC(Nc3ncnc4ccc(C(c5ccc(Cl)cc5)c5ccc(Cl)cc5)cc34)CC2)cc1 measurement_label=pEC50 qualifier_sign=< experimental_value=5.00
compound=N=C(N)c1ccc(S(=O)(=O)N2CCC(Nc3ncnc4ccc(C(c5ccc(Cl)cc5)c5ccc(Cl)cc5)cc34)CC2)cc1 measurement_label=pEC50 qualifier_sign== experimental_value=5.41
